The reported measurements were obtained from patent US9302999B2.

Measured Plant response rating, Foxtail, Giant, listed per entry.
System: foxtail, giant (giant foxtail, Setaria faberii)
Assay summary: Test A pre-/postemergence: foxtail, giant
Type: in vivo
Run parameters: Preemergence, 500 g ai/ha; 0 to 100 scale, 0 is no effect, 100 is complete control

{"columns": ["Compound", "Plant response rating, Foxtail, Giant"],
 "data": [
  ["Cc1nn(-c2ccc(C(F)(F)F)cc2)nc1Cn1cnc(C(F)(F)F)c1Cl [Compound 13]", 0],
  ["Cc1ccc(-n2nc(C)c(C(=O)c3cccc(C(F)(F)F)c3)n2)cc1 [Compound 44]", 90],
  ["FC(F)(F)c1ccc(-n2nc(Cl)c(Cc3ccnc(C(F)(F)F)c3)n2)cc1 [Compound 28]", 100],
  ["Cc1nn(-c2ccc(C(F)(F)F)cn2)nc1C(=O)c1cccc(C(F)(F)F)c1 [Compound 107]", 100],
  ["FC(F)Oc1nn(-c2ccc(C(F)(F)F)cc2)nc1Cc1ccnc(C(F)(F)F)c1 [Compound 26]", 100],
  ["Cc1nn(-c2ccc(Br)cc2)nc1Oc1ccnc(C(F)(F)F)c1 [Compound 53]", 100]
]}
